Sourced from paper PMC8912008

assay: Stability of analytes in rat plasma; conditions: rat plasma, three freeze/thaw cycles, low QC (nominal 10.05-10.50 ng/mL), n = 6
value.kind: Freeze-thaw stability (% ± SD) (%)
Give bare numbers, in %.

A selection of reference data follows.
INSERT INTO assay_data (compound, observed_value) VALUES
  ('CC1=C(C)C(=O)O[C@@H]([C@@H](C)[C@H]2CC[C@H]3[C@@H]4[C@@H]5O[C@@H]5[C@@]5(O)CC=CC(=O)[C@]5(C)[C@H]4CC[C@]23C)C1 [Withanolide B]', 116.31),
  ('CC1=C(CO)C(=O)O[C@@H]([C@@H](C)[C@H]2CC[C@H]3[C@@H]4C[C@H]5O[C@]56[C@@H](O)C=CC(=O)[C@]6(C)[C@H]4CC[C@]23C)C1', 103.41),
  ('CC1=C(CO)C(=O)OC(C(C)C2CCC3C4C5OC5C5(O)CC=CC(=O)C5(C)C4CCC23C)C1 (stereo not shown) [12-Deoxy-withastramonolide]', 101.34),
  ('CC1=C(C)C(=O)O[C@@H]([C@@H](C)[C@@]2(O)CC[C@H]3[C@@H]4[C@@H]5O[C@@H]5[C@@]5(O)CC=CC(=O)[C@]5(C)[C@H]4CC[C@@]32C)C1', 104.24),
  ('CC1=C(C)C(=O)O[C@@H]([C@](C)(O)[C@H]2CC[C@H]3[C@@H]4[C@@H]5O[C@@H]5[C@@]5(O)CC=CC(=O)[C@]5(C)[C@H]4CC[C@]23C)C1 [Withanolide A]', 102.18),
  ('CC1=C(CO)C(=O)O[C@@H]([C@@H](C)[C@H]2CC[C@H]3[C@@H]4CC=C5C[C@@H](O[C@@H]6O[C@H](CO[C@@H]7O[C@H](CO)[C@@H](O)[C@H](O)[C@H]7O)[C@@H](O)[C@H](O)[C@H]6O)C[C@H](O)[C@]5(C)[C@H]4CC[C@]23C)C1 [Withanoside IV]', 104.78);

Form field Freeze-thaw stability (% ± SD), entry CC1=C(C)C(=O)O[C@@H]([C@@H](C)[C@H]2CC[C@H]3[C@@H]4CC=C5C[C@@H](O[C@@H]6O[C@H](CO[C@@H]7O[C@H](CO)[C@@H](O)[C@H](O)[C@H]7O)[C@@H](O)[C@H](O)[C@H]6O)C[C@H](O)[C@]5(C)[C@H]4CC[C@]23C)C1 [Withanoside V] : 105.13

###

Would you mind telling me the reported Bench top Stability (% ± SD) of each entry?
test: Stability of analytes in rat plasma; details: rat plasma, 25 °C for 4 h, high QC (nominal 200.50-201.50 ng/mL), n = 6
Give bare numbers, in %.

A selection of reference data follows.
INSERT INTO measurements (compound, value_kind, observed_value) VALUES
  ('CC1=C(C)C(=O)O[C@@H]([C@@H](C)[C@H]2CC[C@H]3[C@@H]4CC=C5C[C@@H](O[C@@H]6O[C@H](CO[C@@H]7O[C@H](CO)[C@@H](O)[C@H](O)[C@H]7O)[C@@H](O)[C@H](O)[C@H]6O)C[C@H](O)[C@]5(C)[C@H]4CC[C@]23C)C1 [Withanoside V]', 'Bench top Stability (% ± SD)', 91.74),
  ('CC1=C(CO)C(=O)OC(C(C)C2CCC3C4C5OC5C5(O)CC=CC(=O)C5(C)C4CCC23C)C1 (stereo not drawn) [12-Deoxy-withastramonolide]', 'Bench top Stability (% ± SD)', 95.97);

Okay, next one:
Form field Bench top Stability (% ± SD), entry CC1=C(C)C(=O)O[C@@H]([C@@H](C)[C@@]2(O)CC[C@H]3[C@@H]4[C@@H]5O[C@@H]5[C@@]5(O)CC=CC(=O)[C@]5(C)[C@H]4CC[C@@]32C)C1 : 98.87
